Hello, the source for this data is patent US4322340A, in case you need it.

# Tested on: mouse
# experiment: mouse locomotor activity test (physical dependence liability)
# Format: in vivo
# test_settings: Dose 4 mg./kg. subcutaneously, group of ten mice
# Method: A high correlation has been established between the degree of physical dependence liability of a compound and its ability to elicit mouse locomotor activity; Cf. […] Mouse locomotor activity is measured using cylindrical cages of wire mesh 2 inches high and 11 inches in diameter. […] The number of counts per each 15 minute period as well as the total number over the three hour period are recorded. […]
Where a name gives a salt, the structure may show the parent alone.
endpoint_name: mean of the total counts, locomotor activity over three hours (counts)
Numbers only here, please. The scale is counts.

Specify measured mean of the total counts, locomotor activity over three hours for CN[C@@H](Cc1ccc(O)cc1)C(=O)N[C@H](C)C(=O)NCC(=O)N(CC1CC1)[C@@H](Cc1cccc(Br)c1)C(N)=O [Example 1, Acetate Salt] . 171

Specify measured mean of the total counts, locomotor activity over three hours for CCN(C(=O)CNC(=O)[C@@H](C)NC(=O)[C@H](Cc1ccc(O)cc1)NC)[C@@H](Cc1cccc(Cl)c1)C(N)=O [Example 6, Acetate Salt] . 148

Specify measured mean of the total counts, locomotor activity over three hours for CCN(C(=O)CNC(=O)[C@@H](C)NC(=O)[C@H](Cc1ccc(O)cc1)NC)[C@@H](Cc1cccc(Br)c1)C(N)=O [Example 2, Acetate Salt] . 142

Specify measured mean of the total counts, locomotor activity over three hours for CCN(C(=O)CNC(=O)[C@@H](C)NC(=O)[C@H](Cc1ccc(O)cc1)NC)[C@@H](Cc1cccc(C)c1)C(N)=O [Example 4, Acetate Salt] . 173

Specify measured mean of the total counts, locomotor activity over three hours for CCN(C(=O)CNC(=O)[C@@H](C)NC(=O)[C@@H](N)Cc1ccc(O)cc1)[C@@H](Cc1cccc(I)c1)C(N)=O [Example 7, Acetate Salt] . 178

Specify measured mean of the total counts, locomotor activity over three hours for CCN(C(=O)CNC(=O)[C@@H](C)NC(=O)[C@@H](N)Cc1ccc(O)cc1)[C@@H](Cc1ccccc1)C(N)=O [H Et H, reference compound] . 704

Specify measured mean of the total counts, locomotor activity over three hours for CCN(C(=O)CNC(=O)[C@@H](C)NC(=O)[C@@H](N)Cc1ccc(O)cc1)[C@@H](Cc1cccc(Cl)c1)C(N)=O [Example 5, Acetate Salt] . 125

Specify measured mean of the total counts, locomotor activity over three hours for CCN(C(=O)CNC(=O)[C@@H](C)NC(=O)[C@H](Cc1ccc(O)cc1)NC)[C@@H](Cc1ccc(F)cc1)C(N)=O [Me Et p-F, reference compound] . 431
